Below is a list of entries, each paired with its recorded activity at 100 µM value.
Tested on: M. mycetomatis genome strain MM55
Experiment: CLSI M38-A2 based in vitro susceptibility screening (XTT or resazurin), growth at fixed concentration
Assay type: cell-based, Madurella mycetomatis
Details: Madurella mycetomatis, 100 uM, replicate 1; read-out: Percentage survival at 100um, 100 uM A

Use these answered entries as a reference point.
>>> test_result("Cc1ccc(NC(=O)c2cc(Cl)ccc2O)cc1 [MMV1578897]")
"2.19%"
>>> test_result("Cc1ccc(S(=O)(=O)Nc2cccc3cccnc23)cc1 [MMV233495]")
"-0.389%"

The value of activity at 100 µM measured for the compound NC[C@H]1O[C@H](O[C@H]2[C@H](O)[C@@H](O[C@H]3O[C@H](CO)[C@@H](O)[C@H](N)[C@H]3O)[C@H](N)C[C@@H]2N)[C@H](N)C[C@@H]1O [MMV002459] turned out to be 89.3%

The value of activity at 100 µM measured for the compound O=C(O)CCNC(=O)c1ccccc1 [MMV002224] turned out to be 96%

* * *

Tested on: M. mycetomatis genome strain MM55
Experiment: CLSI M38-A2 based in vitro susceptibility screening (XTT or resazurin), growth at fixed concentration
Format: cell-based, Madurella mycetomatis
Conditions: Madurella mycetomatis, 100 uM, replicate (first column); read-out: Percentage survival at 100um, 100 uM A
Below is a list of entries, each paired with its recorded activity at 100 µM value.
Please reply with the bare figure in % and do not write the unit itself.

Use these answered entries as a reference point.
>>> test_result("O=c1ccc2ncc(=O)n3c2n1CC3CN1CCC(NCc2cc3c(cn2)OCCC3)CC1 (stereo not drawn) [MMV1578568]")
26.3
>>> test_result("CN(C)c1[nH]c(=O)ncc1F [MMV1782223]")
84
>>> test_result("O=C(NNC(=S)Nc1ccc(Cl)cc1)c1ccncc1 [MMV1782227]")
128
>>> test_result("O=C1c2cccc3cccc(c23)C(=O)N1CC1CO1 (stereo not drawn) [MMV1634360]")
-2.26
>>> test_result("OC(Cn1cncn1)(Cn1cncn1)c1ccc(F)cc1F [MMV002337]")
-3.44
>>> test_result("O=C(N[C@H](Cc1cccc2ccccc12)C(=O)NCCc1c[nH]cn1)C1Cc2ccccc2C1 [MMV1782109]")
69.9

The value of activity at 100 µM measured for the compound COc1cc(NC(=O)CN2C(=O)NC(c3ccccc3)(c3ccccc3)C2=O)cc(OC)c1 [MMV1578572] turned out to be 83.4

The value of activity at 100 µM measured for the compound CCCCCCC1c2ccc(O)cc2Oc2cc(O)ccc21 [MMV1593535] turned out to be 10.9

The value of activity at 100 µM measured for the compound CC(Oc1ccc(Cl)cc1Cl)C(=O)NCc1ccc2c(c1)OCO2 (stereo not drawn) [MMV1578925] turned out to be 65.3

* * *

System: M. mycetomatis genome strain MM55
Experiment: CLSI M38-A2 based in vitro susceptibility screening (XTT or resazurin), growth at fixed concentration
Assay type: cell-based, Madurella mycetomatis
Details: Madurella mycetomatis, 25 uM, mean; read-out: Percentage survival at 25um, 25 uM mean
Below is a list of entries, each paired with its recorded activity at 25 µM value.
Please reply with the bare figure in % and do not write the unit itself.

The value of activity at 25 µM measured for the molecule CC(C)Oc1cccc(NC(=O)c2ccccc2C(F)(F)F)c1 turned out to be 61

The value of activity at 25 µM measured for the molecule Fc1ccc2c(/C=C/c3cccnc3)c[nH]c2c1 turned out to be 76.9

The value of activity at 25 µM measured for the molecule COc1cc(NCc2ccc3nc(N)nc(N)c3c2C)cc(OC)c1OC turned out to be 73.6

The value of activity at 25 µM measured for the molecule O[C@@](Cn1cnnn1)(c1ccc(F)cc1F)C(F)(F)c1ccc(-c2ccc(OCC(F)(F)F)cc2)cn1 [MMV1634386, Oteseconazole, reference compound] turned out to be -1.26

The value of activity at 25 µM measured for the molecule CCNC(=O)Nc1cc(-c2ccccc2)c(-c2cncc(C(=O)O)c2)cn1 turned out to be 85.6

The value of activity at 25 µM measured for the molecule C[C@H]1[C@@H](c2cccc(C(F)(F)F)c2)OC(=O)N1C(=O)NCc1cncc2ccccc12 turned out to be 50

The value of activity at 25 µM measured for the molecule Clc1cc(Cl)c2c(c1)CCc1ccccc1C2n1ccnc1 (stereo not shown) [MMV1634492, Eberconazole, reference compound] turned out to be -1.12

The value of activity at 25 µM measured for the molecule O=C(O)c1ccc(-n2nc(-c3ccccc3O)nc2-c2ccccc2O)cc1 turned out to be 87

The value of activity at 25 µM measured for the molecule Cc1cc(NS(=O)(=O)c2ccc(-c3ccc(F)cc3F)cc2)no1 turned out to be 78.8

The value of activity at 25 µM measured for the molecule COC(=O)Nc1nc2c(C)cccc2[nH]1 turned out to be 4.41

The value of activity at 25 µM measured for the molecule C[C@@H](NC(=O)c1ccccc1-c1ccccc1)B(O)O turned out to be 84.3

The value of activity at 25 µM measured for the molecule NCC(=O)Nc1ccc(-n2nc(C(F)(F)F)cc2-c2ccc3c(ccc4ccccc43)c2)cc1 turned out to be 9.74

The value of activity at 25 µM measured for the molecule CCCCc1ccc(S(=O)(=O)Nc2cc(C)on2)cc1 turned out to be 86.1

The value of activity at 25 µM measured for the molecule O=C(NC(=O)N1CCCc2ccccc21)c1cccc(Cl)c1 turned out to be 92

The value of activity at 25 µM measured for the molecule C[C@@H](c1nc(-c2ccc(C#N)cc2)cs1)[C@](O)(Cn1cncn1)c1ccc(F)cc1F turned out to be -1.1

The value of activity at 25 µM measured for the molecule OB1OCc2c1ccc(Cl)c2F turned out to be 54.9

The value of activity at 25 µM measured for the molecule C[C@@H](O)[C@H](N)C(=O)NS(=O)(=O)c1cccc(-c2ccc3[nH]ncc3c2)c1 turned out to be 82.4

The value of activity at 25 µM measured for the molecule CNc1nc(=O)[nH]cc1F turned out to be 81.1

The value of activity at 25 µM measured for the molecule c1ccc(-c2nnc3c4ccccc4c(N4CCNCC4)nn23)cc1 turned out to be 84.6

* * *

Test system: M. mycetomatis MM55
Experiment: IC50 determination, 2-fold dilution series 16 to 0.03125 μM
Assay type: cell-based, Madurella mycetomatis
Details: M. mycetomatis
measurement.name: Drug static or cidal

>>> test_result("O=[N+]([O-])c1ccc2c(CCc3c[nH]c4ccccc34)c[nH]c2c1")
"Cidal"
>>> test_result("CCC(C)(C)c1ccc(CC(C)CN2C[C@@H](C)O[C@@H](C)C2)cc1 (stereo partly shown) [MMV1634358, Amorolfine, reference compound]")
"Static"
>>> test_result("COC(=O)Nc1nc2ccccc2[nH]1")
"Static"
>>> test_result("Cc1cc(-c2ccccc2)c(C(=O)C(=O)Nc2ccc(N3CCN(c4ncc(F)cn4)CC3)cc2)n1C")
"Cidal"

* * *

System: M. mycetomatis genome strain MM55
Test: CLSI M38-A2 based in vitro susceptibility screening (XTT or resazurin), growth at fixed concentration
Format: cell-based, Madurella mycetomatis
Settings: Madurella mycetomatis, 100 uM, mean of three replicates; read-out: Percentage survival at 100um, 100 uM mean
Mark class 1 only when activity at 100 µM stays strictly below 70%. Values equal to the cut-off are class 0.

Previously resolved entries follow.
>>> class_assignment("CCOc1ccc(C(=O)NCCc2ccccc2)cc1")
"class 1"
>>> class_assignment("N#Cc1cc([N+](=O)[O-])ccc1Oc1ccccc1Cl")
"class 1"
>>> class_assignment("O=S(=O)(Nc1ccc(O)cc1)c1cccc2cccnc12")
"class 0"

Problem: Check if activity at 100 µM falls below 70% for NCc1ccc(S(N)(=O)=O)cc1 .
Solution: class 0

Problem: Check if activity at 100 µM falls below 70% for COc1ccccc1NC(=O)c1ccccc1Sc1ccc([N+](=O)[O-])cc1 .
Solution: class 1

Problem: Check if activity at 100 µM falls below 70% for COc1cc(C(C)(C)CCCC(C)C)cc(OC)c1OC .
Solution: class 0

Problem: Check if activity at 100 µM falls below 70% for O=C(NCCN1CCCCC1)c1cccc(C(F)(F)F)c1 .
Solution: class 0

Problem: Check if activity at 100 µM falls below 70% for C[C@H](Cn1cnc2c(N)ncnc21)OCP(=O)(O)O .
Solution: class 0

Problem: Check if activity at 100 µM falls below 70% for CCC(CC)[C@H](NC(C)=O)[C@@H]1[C@H](O)[C@@H](C(=O)O)C[C@H]1NC(=N)N .
Solution: class 0

Problem: Check if activity at 100 µM falls below 70% for Cc1onc(-c2ccccc2)c1-c1ccc(S(N)(=O)=O)cc1 .
Solution: class 0

Problem: Check if activity at 100 µM falls below 70% for NNC(=O)c1ccncc1 .
Solution: class 0

Problem: Check if activity at 100 µM falls below 70% for COc1cccc(N2CCN(C3=Nc4c(F)cccc4[C@H](CC(=O)O)N3c3cc(C(F)(F)F)ccc3OC)CC2)c1 .
Solution: class 0
